Listed here: items and their measured Ki.
target.under.test: Somatostatin receptor type 3 (Homo sapiens)
Sequence (P32745 whole entry): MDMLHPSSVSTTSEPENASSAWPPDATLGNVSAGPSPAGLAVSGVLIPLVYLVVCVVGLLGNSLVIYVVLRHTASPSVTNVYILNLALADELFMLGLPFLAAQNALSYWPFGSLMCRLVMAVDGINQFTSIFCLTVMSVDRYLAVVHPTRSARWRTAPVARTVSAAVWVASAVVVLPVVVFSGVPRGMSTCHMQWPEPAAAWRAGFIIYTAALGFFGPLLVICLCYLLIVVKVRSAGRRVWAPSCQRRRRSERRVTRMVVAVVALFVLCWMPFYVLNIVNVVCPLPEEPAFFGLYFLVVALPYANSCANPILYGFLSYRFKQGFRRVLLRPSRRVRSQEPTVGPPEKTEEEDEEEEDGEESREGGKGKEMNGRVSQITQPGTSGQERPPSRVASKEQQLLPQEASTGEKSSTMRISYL
experiment.notes: Displacement of [3-125l-Tyr]-somatostatin-(1 -14) from human recombinant somatostatin 3 receptor expressed in CHO cell membranes incubated for 180 mins

Asked: Record lookup: for Somatostatin receptor type 3 (Homo sapiens), what Ki belongs to CC(C)(NC(=O)[C@H]1[C@@H]2CNC[C@@H]21)c1noc2c(F)cccc12 ?
Given back: > 8.6 µM

Asked: Record lookup: for Somatostatin receptor type 3 (Homo sapiens), what Ki belongs to Cc1nc(C(C)(C)NC(=O)[C@H]2[C@@H]3CNC[C@@H]32)c2ccccc2n1 ?
Given back: > 8.71 µM

Asked: Record lookup: for Somatostatin receptor type 3 (Homo sapiens), what Ki belongs to Cn1nc(C(C)(C)NC(=O)[C@H]2[C@@H]3CNC[C@@H]32)c2ccccc21 ?
Given back: > 8.62 µM

The measured values listed here are drawn from ChEMBL document CHEMBL3421604.
